Published IC50 for Ubiquitin carboxyl-terminal hydrolase 7 (Homo sapiens, UniProt Q93009), assembled from different documents, is shown next.

| compound | IC50 |
| --- | --- |
| O=C(C1Cc2cc(Cl)cc(-c3ccnc4[nH]ccc34)c2O1)N1CCN([C@H]2CC[C@@H](c3ccccc3)CC2)CC1 (stereo partly drawn) | 1000 to 10000 nM |
| Cc1cc(Cl)cc(-c2ncnc3cc(CN4CC(C(F)F)CC4=O)sc23)c1C[C@@H]1CNCC(C)(C)O1 (stereo partly drawn) | 10 to 100 nM |
| O=C([C@H]1Cc2cc(Cl)cc(-c3ccnc4cc(CCN5C(=O)CCC5=O)sc34)c2O1)N1CCNCC1 | < 1000 nM |
| CCN1CC[C@H](N2CCCc3cc(C#N)cc(-c4ccnc5cc(Cn6c(=O)ccn(CC(F)(F)F)c6=O)sc45)c32)C1 | < 10 nM |
| OCc1cc2nccc(-c3cc(Cl)cc4c3O[C@@H](c3onc5c3CNCC5)CC4)c2s1 | < 1000 nM |
| CN1CC(=O)N(Cc2cc3nccc(-c4cc(Cl)cc5c4N([C@H]4CCNC4)CCC5)c3s2)C1=O | < 10 nM |
| O=c1cccnn1Cc1cc2nccc(-c3cc(Cl)cc4c3N(C3CNC3)CCC4)c2s1 | 10 to 100 nM |
| CC(=O)NC(C)c1cc2nccc(-c3cc(Cl)cc4c3O[C@@H](c3c5c(nn3C)CCNC5)C4)c2s1 (stereo partly drawn) | < 1000 nM |

Reported IC50 for "C=CCCC(=O)N1CCC(O)(Cn2cnc3cc(Cl)ccc3c2=O)CC1" was > 10000 nM

Lookup result for CN1CCC(CN2CCN(C(=O)C3Cc4cc(Cl)cc(-c5ccnc6[nH]ccc56)c4O3)CC2)CC1 (stereo not drawn) ; measured IC50: 1000 to 10000 nM

GET /value?item= "CN1CCN(c2cccc(-c3n[nH]c4c3CN(C#N)C4)c2)CC1" &field=IC50 returns < 10000 nM

Summary for this compound, "Nc1nnc2nc3c(nn12)-c1ccccc1C3=O" : IC50 is 700 nM
